# study.target: human Factor IXa (human, UniProt P00740 47-191; P00740 227-461)
# test.method.notes: cell-based or functional assay
Listed here are binders together with their documented EC50 [µM], FXa generation assay.

Solved cases below.
RRAPGKLTCLASYCWLFWTGLSRYQWQAQEDV [RRAPGKLTCLASYCWLF WTGLS RYQWQAQEDV] = > 1 µM
MAGMLKLTCFASYCGLFPLVSS = < 0.5 µM
RRAPGKLQCLASYCWLFWTGLA = < 0.5 µM
RRAPGKLQCLASYCWLFWTG = > 1 µM
KLTCLKSYCWLF = > 1 µM
KATCLASYCWLF = < 0.5 µM

Now take the following binder into account.
# EC50 [µM], FXa generation assay lookup, item CLASYCWLF
> 20 µM
